# System: VDR:RXRa (NR concentration 270 nM, RXRa partner concentration 90 nM)
# procedure_details: PBM binding z-score (relative to random genomic background probes); higher = stronger binding; sequences stand for … in GC…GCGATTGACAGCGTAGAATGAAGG
readout_name: PBM binding z-score
Form rule: numeric answer, no unit written next to it.

input_sequence: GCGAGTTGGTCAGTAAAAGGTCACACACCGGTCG
value: 4.33
--
input_sequence: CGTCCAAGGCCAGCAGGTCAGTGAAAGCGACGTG
value: -0.178
--
input_sequence: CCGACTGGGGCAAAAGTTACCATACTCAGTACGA
value: -0.267
--
input_sequence: CAAACTTGGTCAAGAGGTCAAAGTCCGCTTCCCG
value: 5.4
--
input_sequence: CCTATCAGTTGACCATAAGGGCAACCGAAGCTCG
value: 0.912
--
input_sequence: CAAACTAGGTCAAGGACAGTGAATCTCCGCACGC
value: 1.56
--
input_sequence: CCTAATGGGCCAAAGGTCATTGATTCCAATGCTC
value: 4.64
--
input_sequence: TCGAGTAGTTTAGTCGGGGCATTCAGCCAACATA
value: 0.157
--
input_sequence: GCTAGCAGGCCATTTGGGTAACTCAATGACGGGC
value: -0.713
--
input_sequence: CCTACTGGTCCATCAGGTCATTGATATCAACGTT
value: 2.46

Q: # lookup: PBM binding z-score of `TCAGACAGGTGAATGTAACTCAGGTACGCAGTCG`
A: 0.512

Q: Then what about the sequence `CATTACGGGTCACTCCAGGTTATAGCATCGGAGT` ?
A: 4.52

---

Quick reference: PBM binding z-score of the listed items.
# Test system: PXR homodimer (NR concentration 270 nM)
# procedure_details: PBM binding z-score (relative to random genomic background probes); higher = stronger binding; sequences stand for … in GC…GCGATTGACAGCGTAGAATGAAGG

input_sequence: TCTAACAGGCCAGAGGGTCACTCAAGAGGTACGG
value: -0.0848

Q: # lookup: PBM binding z-score of `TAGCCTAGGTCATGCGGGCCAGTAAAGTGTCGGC`
A: -0.33

Q: Then what about the sequence `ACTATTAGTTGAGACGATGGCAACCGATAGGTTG` ?
A: -0.102

Q: Then what about the sequence `CTCGAAAGGACGTGCTCAGGTGAGTATACCAAAC` ?
A: -0.1

Q: Then what about the sequence `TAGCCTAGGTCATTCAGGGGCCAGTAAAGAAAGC` ?
A: -0.023

Q: Then what about the sequence `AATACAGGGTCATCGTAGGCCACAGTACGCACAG` ?
A: 0.511

Q: Then what about the sequence `CTCGAAAGGTCGGGCTCAGGTGAGTATACCAAAC` ?
A: -0.297

Q: Then what about the sequence `ACTAATAGTTGACTTAGGGCAACCGATACGACGC` ?
A: 0.295

Q: Then what about the sequence `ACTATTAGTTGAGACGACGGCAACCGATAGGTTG` ?
A: -0.0364

Q: Then what about the sequence `TAGTCTAGGTCATTCAGGGGCCAGTATAGAAAGC` ?
A: 0.48

Q: Then what about the sequence `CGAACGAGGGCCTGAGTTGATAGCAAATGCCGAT` ?
A: -0.641

Q: Then what about the sequence `CGTCCAAGGTCATAGGAGGACAGTGAAGACAGAT` ?
A: 1.55

---

# System: PPARg homodimer (NR concentration 180 nM)
# procedure_details: PBM binding z-score (relative to random genomic background probes); higher = stronger binding; sequences stand for … in GC…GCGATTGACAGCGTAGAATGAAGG
Given measured PBM binding z-score, output True if it is greater than or equal to 0.8 and False if not.

Example entries begin here.
input_sequence: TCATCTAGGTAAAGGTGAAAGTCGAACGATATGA
group_label: True

input_sequence: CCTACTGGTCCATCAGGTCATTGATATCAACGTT
group_label: True

input_sequence: GGAACGAGGGCAGTCGAGTTGATAGCATGGCGAT
group_label: False

input_sequence: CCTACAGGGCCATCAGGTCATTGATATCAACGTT
group_label: True

input_sequence: TCTTGTAGATCAGCAGGTTAAGTAAGCTGGCCAA
group_label: False

Q: In plain terms: is recorded PBM binding z-score at least 0.8 for `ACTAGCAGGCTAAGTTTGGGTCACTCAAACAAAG` ?
A: False

Q: Then what about the sequence `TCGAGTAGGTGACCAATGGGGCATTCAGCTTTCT` ?
A: False

Q: Then what about the sequence `GGAACGAGGGCATTCAAGTTGATAGCATGGCGAT` ?
A: False

Q: Then what about the sequence `CGAGCTAGGTCATTGACAGGACAGTGAATAGTAA` ?
A: True

Q: Then what about the sequence `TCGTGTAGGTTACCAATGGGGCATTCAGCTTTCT` ?
A: True

---

# System: RXRa homodimer (NR concentration 180 nM)
# procedure_details: PBM binding z-score (relative to random genomic background probes); higher = stronger binding; sequences stand for … in GC…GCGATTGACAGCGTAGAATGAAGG
Quick reference: PBM binding z-score of the listed items.
Form rule: numeric answer, no unit written next to it.

Please review the following examples before continuing.
input_sequence: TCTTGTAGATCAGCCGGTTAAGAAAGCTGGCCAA
PBM binding z-score: -0.222
--
input_sequence: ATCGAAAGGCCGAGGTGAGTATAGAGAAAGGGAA
PBM binding z-score: 0.294
--
input_sequence: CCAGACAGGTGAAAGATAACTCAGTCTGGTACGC
PBM binding z-score: 0.775
--
input_sequence: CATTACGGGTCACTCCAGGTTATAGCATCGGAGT
PBM binding z-score: 4.65
--
input_sequence: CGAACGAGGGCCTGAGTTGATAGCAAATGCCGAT
PBM binding z-score: -0.236

Q: # lookup: PBM binding z-score of `GGAACGAGGGCAATCGAGTTGATAGCATGGCGAT`
A: 0.638

Q: Then what about the sequence `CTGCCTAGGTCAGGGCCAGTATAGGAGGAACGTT` ?
A: 1.25

Q: Then what about the sequence `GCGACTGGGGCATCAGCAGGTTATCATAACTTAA` ?
A: 0.555

Q: Then what about the sequence `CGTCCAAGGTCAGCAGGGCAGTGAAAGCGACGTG` ?
A: 3.74

Q: Then what about the sequence `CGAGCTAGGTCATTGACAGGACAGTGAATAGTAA` ?
A: 2.37

Q: Then what about the sequence `CGAAATAGGTCATCCAGGACAGTGAATACATTGA` ?
A: 4.96

Q: Then what about the sequence `GCAGACAGGTGAAACGCAGGTAATTCAGGGTGGC` ?
A: 0.614

---

# Tested on: RARa:RXR (NR concentration 270 nM, RXRa partner concentration 90 nM)
# procedure_details: PBM binding z-score (relative to random genomic background probes); higher = stronger binding; sequences stand for … in GC…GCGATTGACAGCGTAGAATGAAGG
readout_name: PBM binding z-score
Form rule: numeric answer, no unit written next to it.

input_sequence: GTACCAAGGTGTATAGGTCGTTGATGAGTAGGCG
PBM binding z-score: 0.833
//
input_sequence: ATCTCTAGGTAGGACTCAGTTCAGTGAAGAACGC
PBM binding z-score: 0.353
//
input_sequence: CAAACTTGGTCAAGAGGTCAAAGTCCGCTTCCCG
PBM binding z-score: 6.15
//
input_sequence: CAAACTAGGTCACCGGAAGGTCAAGGTCCGCATG
PBM binding z-score: 7.28
//
input_sequence: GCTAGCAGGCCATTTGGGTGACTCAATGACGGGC
PBM binding z-score: -0.229
//
input_sequence: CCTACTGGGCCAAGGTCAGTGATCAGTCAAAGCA
PBM binding z-score: 1.75

Next, consider the following sequence.
Q: # lookup: PBM binding z-score of `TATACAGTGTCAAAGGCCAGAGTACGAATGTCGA`
A: 1.33

---

# Tested on: RXRa homodimer (NR concentration 180 nM)
# procedure_details: PBM binding z-score (relative to random genomic background probes); higher = stronger binding; sequences stand for … in GC…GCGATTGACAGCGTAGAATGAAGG
readout_name: PBM binding z-score
Form rule: numeric answer, no unit written next to it.

input_sequence: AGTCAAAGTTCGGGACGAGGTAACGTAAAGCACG
PBM binding z-score: 1.07
//
input_sequence: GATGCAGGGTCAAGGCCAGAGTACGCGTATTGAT
PBM binding z-score: 5.72
//
input_sequence: CCGAGTCGGTTATGGGGCATTCAGGCAACGGTGA
PBM binding z-score: -0.27
//
input_sequence: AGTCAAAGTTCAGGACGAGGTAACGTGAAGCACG
PBM binding z-score: 3.03
//
input_sequence: CCTAGTTGGTCAAGTTCACACACGCTATAGGTAC
PBM binding z-score: 2

Q: # lookup: PBM binding z-score of `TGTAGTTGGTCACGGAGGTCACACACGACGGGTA`
A: 4.76

Q: Then what about the sequence `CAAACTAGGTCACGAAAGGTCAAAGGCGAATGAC` ?
A: 8.7

Q: Then what about the sequence `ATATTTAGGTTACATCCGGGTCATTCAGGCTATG` ?
A: 3.32

Q: Then what about the sequence `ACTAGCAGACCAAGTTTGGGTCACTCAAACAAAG` ?
A: 0.79

Q: Then what about the sequence `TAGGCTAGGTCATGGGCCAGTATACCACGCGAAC` ?
A: 3.29

Q: Then what about the sequence `CCTTACGGGTCACTCCAGCTTATAGCATCGGAGT` ?
A: 3.9

Q: Then what about the sequence `GTACCAAGGTGAATAGGTAGTTGATGAGTAGGCG` ?
A: 0.629

Q: Then what about the sequence `CCTAGCAGGCCAGGGTTACTCAAGCATTTCGCTT` ?
A: 0.113
